Header: Ki / Protein kinase C theta type (Homo sapiens) / multiple publications

{"columns": ["COMPOUND", "SYSTEM_TESTED", "Ki"],
 "data": [
  ["CC(C)C[C@@H]1CN(c2cccc(-c3n[nH]c4ncccc34)n2)CC[C@@H]1N", "Protein kinase C theta type (Homo sapiens)", "< 50 nM"],
  ["COC(C)(C)CC1CN(c2ccc(C(F)(F)F)c(-c3n[nH]c4ncccc34)n2)CCN1 (centres unmarked)", "Protein kinase C theta type (Homo sapiens)", "< 500 nM"],
  ["NC[C@H]1CC[C@H](n2c(-c3c(Cl)cccc3Cl)nc3cnc(NCc4ccccc4F)nc32)CC1", "Protein kinase C theta type (Homo sapiens)", "< 1000 nM"],
  ["CC(C)CC1(C)CN(c2ccc(F)c(-c3n[nH]c4ncccc34)n2)CCC1N (centres unmarked)", "Protein kinase C theta type (Homo sapiens)", "< 50 nM"],
  ["COC(C)(C)C1CN(c2cccc(-c3n[nH]c4ncccc34)n2)CCN1 (centres unmarked)", "Protein kinase C theta type (Homo sapiens)", "< 50 nM"],
  ["N#CCCC1CN(c2ccc(C(F)(F)F)c(-c3n[nH]c4ncccc34)n2)CCC1O (centres unmarked)", "Protein kinase C theta type (Homo sapiens)", "< 2800 nM"],
  ["CCC1(CC(C)C)CN(c2ccc(C(F)(F)F)c(-c3n[nH]c4ncccc34)n2)CCC1N (centres unmarked)", "Protein kinase C theta type (Homo sapiens)", "< 50 nM"],
  ["CC(C)(C)C[C@H]1CN(c2ccc(Cl)c(-c3n[nH]c4ncccc34)n2)CCN1", "Protein kinase C theta type (Homo sapiens)", "< 50 nM"],
  ["CCC(CO)Nc1ccc(C(F)(F)F)c(-c2n[nH]c3ncccc23)n1 (centres unmarked)", "Protein kinase C theta type (Homo sapiens)", "> 700 nM"],
  ["CC(C)C[C@H]1CN(c2ccc(-c3ccccc3)c(-c3n[nH]c4ncccc34)n2)CCN1", "Protein kinase C theta type (Homo sapiens)", "< 500 nM"],
  ["CC(F)(F)C(C)(O)C1CN(c2ccc(F)c(-c3n[nH]c4ncccc34)n2)CCN1 (centres unmarked)", "Protein kinase C theta type (Homo sapiens)", "< 1 nM"],
  ["CC(C)(F)CC1CN(c2ccc(C(F)(F)F)c(-c3n[nH]c4ncccc34)n2)CCN1 (centres unmarked)", "Protein kinase C theta type (Homo sapiens)", "< 50 nM"],
  ["FC(F)(F)c1ccc(OC[C@@H]2CCCN3CCCC[C@@H]23)nc1-c1n[nH]c2ncccc12", "Protein kinase C theta type (Homo sapiens)", "> 700 nM"],
  ["CC(C)(CN)c1csc(-c2ccnc3[nH]ncc23)n1", "Protein kinase C theta type (Homo sapiens)", "< 50 nM"],
  ["C=C(C)CC1CN(c2ccc(C(F)(F)F)c(-c3n[nH]c4ncccc34)n2)CCN1 (centres unmarked)", "Protein kinase C theta type (Homo sapiens)", "< 50 nM"],
  ["N[C@H](CNc1cccc(-c2n[nH]c3ncccc23)n1)c1ccccc1", "Protein kinase C theta type (Homo sapiens)", "< 500 nM"],
  ["c1ccc(-c2ccc(N3CCNCC3)nc2-c2n[nH]c3ncccc23)cc1", "Protein kinase C theta type (Homo sapiens)", "> 700 nM"]
]}

* * *

Header: Ki / Protein kinase C theta type (Homo sapiens, UniProt Q04759) / multiple publications

{"columns": ["MOLECULE", "Ki"],
 "data": [
  ["CS(=O)(=O)NCC1CCCN(c2ccc(C(F)(F)F)c(-c3n[nH]c4ncccc34)n2)C1 (centres unmarked)", "> 700 nM"],
  ["CC(C)C[C@]1(O)CN(c2ccc(C(F)(F)F)c(-c3n[nH]c4ncccc34)n2)CC[C@H]1N", "< 50 nM"],
  ["NCC1CCN(c2cccc(-c3n[nH]c4ncccc34)n2)CC1", "< 500 nM"],
  ["CC(C)CC1(C(N)=O)CN(c2ccc(C(F)(F)F)c(-c3n[nH]c4ncccc34)n2)C1", "> 700 nM"],
  ["CN(CCC#N)c1ccc(C(F)(F)F)c(-c2n[nH]c3ncccc23)n1", "< 500 nM"],
  ["CCC(C)(O)C1CN(c2cccc(-c3n[nH]c4ncccc34)n2)CCN1 (centres unmarked)", "< 50 nM"],
  ["NC1CCC(CNc2cccc(-c3n[nH]c4ncccc34)n2)CC1 (centres unmarked)", "< 500 nM"],
  ["O=c1[nH]c2cnc(NC[C@H]3CCCNC3)nc2n1Cc1ccccc1Br", "< 1000 nM"]
]}
